Tested on: ALK1-mediated SMAD1/5 phosphorylation in HUVEC cells
Assay: Cell-based immunofluorescence assay for ALK1-mediated SMAD1/5 phosphorylation in HUVEC cells
Settings: Homo sapiens, 1.5 ng/ml BMP-9 with compound for 2 h, % nuclei with pSMAD1/5 signal, read-out: Smad 1/5 IC50
Counter-ions that a name gives are not always drawn.
API: label(entry) gives criterion met if the entry's IC50 is strictly smaller than 2000 nM; on equality or larger values it gives criterion not met.

Query string: Hello, I'm reviewing records and need to know if IC50 of NC1CCN(c2ccc3[nH]c(-c4cc(-c5cccc(CO)c5)c[nH]c4=O)nc3c2)CC1 [Compound A26, dihydrochloride] is below 2000 nM. Could you check?
Result string: criterion met

Query string: Determine whether this compound shows IC50 lower than 2000 nM (ties excluded): O=c1[nH]cc(-c2cccc3[nH]ccc23)cc1-c1nc2cc(N3CCNCC3)ccc2[nH]1
Result string: criterion met

Query string: Determine if CN1CCN(c2ccc3[nH]c(-c4cc(-c5cccc(CO)c5)c[nH]c4=O)nc3c2)CC1 shows IC50 strictly lower than 2000 nM.
Result string: criterion met

Query string: Identify whether the compound COCc1cccc(-c2c[nH]c(=O)c(-c3nc4cc(N5CCNCC5)ccc4[nH]3)c2)c1 records IC50 below 2000 nM.
Result string: criterion not met

Query string: Take the compound CN1C2CCC1CN(c1ccc3[nH]c(-c4cc(-c5ccnc6[nH]ccc56)c[nH]c4=O)nc3c1)C2 and say whether its IC50 is less than 2000 nM.
Result string: criterion not met

Query string: Lab note: IC50 threshold 2000 nM. Does this compound come in strictly under it? Cc1[nH]c2ncccc2c1-c1c[nH]c(=O)c(-c2nc3cc(N4CCNCC4)ccc3[nH]2)c1
Result string: criterion not met

----------
In what follows, each item is paired with its pIC50 for ALK1 (GST-modified kinase domain ACVRL1 (139-503)) (Homo sapiens).
Counter-ions that a name gives are not always drawn.
Notebook: values listed as pIC50 are -log10 of the concentration (mol/L).

Query string: What measured pIC50 goes with CN1CCCN(c2ccc3[nH]c(-c4cc(-c5cccc(CO)c5)c[nH]c4=O)nc3c2)CC1 ?
Result string: 7.85

Query string: # pIC50 lookup, item Cc1cc2c(-c3c[nH]c(=O)c(-c4nc5cc(N6CCNCC6)ccc5[nH]4)c3)ccnc2[nH]1 [Compound A48a]
Result string: 7.31

Query string: Suppose we examine the compound O=c1[nH]cc(-c2cccc3[nH]ccc23)cc1-c1nc2cc(N3CCNCC3)ccc2[nH]1 ; what pIC50 value has been reported?
Result string: 7.77

Query string: # input compound: O=c1[nH]cc(-c2cc(CO)ccc2Cl)cc1-c1nc2cc(N3CCNCC3)ccc2[nH]1 [Compound A22, dihydrochloride] ; wanted: its pIC50
Result string: 8.46

Query string: Look at this compound and give its reported pIC50. CN1CCN(c2ccc3[nH]c(-c4cc(-c5ccnc6ccccc56)c[nH]c4=O)nc3c2)CC1
Result string: 7.04

Query string: Fill blank: measured pIC50 of the compound CN1CCN(c2ccc3[nH]c(-c4cc(-c5cnn(C)c5)c[nH]c4=O)nc3c2)CC1 is ____.
Result string: 5.74

Query string: Given the entry Cc1ccc2nc(-c3cc(-c4ccncc4)c[nH]c3=O)[nH]c2c1 , report its measured pIC50.
Result string: 5.04

Query string: Need pIC50, item O=c1[nH]cc(-c2ccc(CO)cc2)cc1-c1nc2cc(N3CCNCC3)ccc2[nH]1
Result string: 8.22

Query string: Reported pIC50, compound CN1CCN(c2ccc3[nH]c(-c4cc(-c5ccc(F)c(CO)c5)c[nH]c4=O)nc3c2)CC1 : ____
Result string: 7.52

Query string: Fill in the blank: the reported pIC50 of CN1CCC(Oc2ccc3[nH]c(-c4cc(-c5ccnc6ccccc56)c[nH]c4=O)nc3c2)CC1 is ____.
Result string: 6.77

Query string: Recorded pIC50 of CN1CCN(c2ccc3[nH]c(-c4cc(-c5cccc(CO)c5F)c[nH]c4=O)nc3c2)CC1 [Compound A37, trifluoroacetate] , please.
Result string: 8.40

Query string: Can you share its pIC50? I mean this compound: CN1CCN(c2ccc3[nH]c(-c4cc(-c5cccc(CO)c5)c[nH]c4=O)nc3c2)CC1
Result string: 7.89

Query string: Quick one: pIC50 of CN(C)C1CCN(c2ccc3[nH]c(-c4cc(-c5cccc(CO)c5)c[nH]c4=O)nc3c2)CC1 [Compound A36, formate] ?
Result string: 8.54

Query string: Find the recorded pIC50 belonging to O=c1[nH]cc(-c2ccc(F)c(CO)c2)cc1-c1nc2cc(N3CCNCC3)ccc2[nH]1 and report it.
Result string: 7.62

Query string: May I ask what pIC50 has been recorded for O=c1[nH]cc(-c2ccncc2)cc1-c1nc2ccc(Cl)cc2[nH]1 ?
Result string: 5.05

----------
Exercise: state measured IC50 for each of the compounds provided.
Target: ALK5 (TGFβR1; GST-modified TGFBR1 (200-503)) (Homo sapiens, UniProt P36897)
Construct: Using GST-Modified TGFBR1 (200-503); GST
Sequence (P36897 200-503): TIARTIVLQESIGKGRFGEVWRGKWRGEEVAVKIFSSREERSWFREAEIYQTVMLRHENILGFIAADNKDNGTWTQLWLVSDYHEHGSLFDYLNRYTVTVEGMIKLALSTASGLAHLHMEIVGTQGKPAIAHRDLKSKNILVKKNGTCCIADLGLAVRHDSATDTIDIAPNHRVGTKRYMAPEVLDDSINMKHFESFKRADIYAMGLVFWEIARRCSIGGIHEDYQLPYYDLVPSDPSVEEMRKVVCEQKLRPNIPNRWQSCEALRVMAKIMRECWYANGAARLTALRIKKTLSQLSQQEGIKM
Test: ALK5 kinase inhibition assay (33P-ATP filter binding, Reaction Biology)
Settings: casein substrate, 200 μM ATP
Counter-ions that a name gives are not always drawn.

Query string: Suppose we examine the compound O=c1[nH]cc(-c2cccc(CO)c2)cc1-c1nc2cc(N3CCOCC3)ccc2[nH]1 ; what IC50 value has been reported?
Result string: 3600 nM

Query string: Form field: reported IC50 of O=c1[nH]cc(-c2ccnc3[nH]ccc23)cc1-c1nc2cc(N3CCOCC3)ccc2[nH]1
Result string: 430 nM

Query string: Please look up its IC50: NC1CCN(c2ccc3[nH]c(-c4cc(-c5cccc(CO)c5)c[nH]c4=O)nc3c2)CC1 [Compound A26, dihydrochloride]
Result string: 1900 nM

Query string: State the recorded IC50 for this entry: O=c1[nH]cc(-c2ccnc3[nH]ccc23)cc1-c1nc2cc(N3CCC(O)CC3)ccc2[nH]1
Result string: 320 nM

Query string: Given the entry O=c1[nH]cc(-c2cccc(CO)c2)cc1-c1nc2cc(N3CCNCC3)ccc2[nH]1 [Compound A13, dihydrochloride] , report its measured IC50.
Result string: 970 nM

----------
Hi there, I'd appreciate the recorded pIC50 for every entry that follows.
System: ALK1-mediated SMAD1/5 phosphorylation in HUVEC cells
Assay: Cell-based immunofluorescence assay for ALK1-mediated SMAD1/5 phosphorylation in HUVEC cells
Settings: Homo sapiens, 1.5 ng/ml BMP-9 with compound for 2 h, % nuclei with pSMAD1/5 signal, read-out: Smad 1/5 IC50
Where a name gives a salt, the structure may show the parent alone.
# log scale: pIC50 equals minus log10 of the concentration in mol/L

Query string: What value of pIC50 has been reported for the following compound? CN(C)C1CCN(c2ccc3[nH]c(-c4cc(-c5cccc(CO)c5)c[nH]c4=O)nc3c2)CC1 [Compound A36, formate]
Result string: 6.62

Query string: Name the reported pIC50 value associated with the compound CN1CCN(c2ccc3[nH]c(-c4cc(-c5cnc6[nH]ccc6c5)c[nH]c4=O)nc3c2)CC1
Result string: 5.25

Query string: Which pIC50 reading was recorded for the compound O=c1[nH]cc(-c2ccnc3[nH]ccc23)cc1-c1nc2cc(N3CCCCC3)ccc2[nH]1 ?
Result string: 5.74

Query string: Looking for the measured pIC50 of O=c1[nH]cc(-c2cccc(CO)c2F)cc1-c1nc2cc(N3CCNCC3)ccc2[nH]1 , can you help?
Result string: 6.89

Query string: What pIC50 value was documented for this compound, CN1CCN(c2ccc3[nH]c(-c4cc(-c5ccc(CO)cc5)c[nH]c4=O)nc3c2)CC1 ?
Result string: 6.14

Query string: Form field: reported pIC50 of O=c1[nH]cc(-c2ccnc3ccccc23)cc1-c1nc2cc(N3CCNCC3)ccc2[nH]1
Result string: 5.24

Query string: Reported pIC50, compound O=c1[nH]cc(-c2ccc(CO)cc2)cc1-c1nc2cc(N3CCNCC3)ccc2[nH]1 : ____
Result string: 6.23

Query string: Looking for the measured pIC50 of O=c1[nH]cc(-c2ccnc3[nH]ccc23)cc1-c1nc2cc(N3CCOCC3)ccc2[nH]1 , can you help?
Result string: 6.72

Query string: # query: pIC50 of entry O=c1[nH]cc(-c2cc(F)c(CO)c(F)c2)cc1-c1nc2cc(N3CCNCC3)ccc2[nH]1 [Compound A21, dihydrochloride]
Result string: 5.21

Query string: Could you share which pIC50 value was measured for O=c1[nH]cc(-c2cc(CO)ccc2Cl)cc1-c1nc2cc(N3CCOCC3)ccc2[nH]1 ?
Result string: 5.19

Query string: If you can, please state the reported pIC50 value of Cc1cc2c(-c3c[nH]c(=O)c(-c4nc5cc(N6CCNCC6)ccc5[nH]4)c3)ccnc2[nH]1 [Compound A48a] .
Result string: 5.57

Query string: # input compound: COc1ccc2[nH]c(-c3cc(-c4ccnc5[nH]ccc45)c[nH]c3=O)nc2c1 ; wanted: its pIC50
Result string: 5.10

Query string: Need pIC50 of O=c1[nH]cc(-c2ccnc3[nH]ccc23)cc1-c1nc2cc(N3CCNCC3)ccc2[nH]1 [Compound A44, dihydrochloride] , thanks.
Result string: 5.00

Query string: What value of pIC50 has been reported for the following compound? CN1CCCN(c2ccc3[nH]c(-c4cc(-c5ccnc6[nH]ccc56)c[nH]c4=O)nc3c2)CC1
Result string: 5.43

Query string: What value of pIC50 has been recorded for this entry: O=c1[nH]cc(-c2cccc(CO)c2)cc1-c1nc2cc(N3CCCNCC3)ccc2[nH]1
Result string: 5.60
